Assay: Confirmatory fluorescence-based thiol-reactive (MSTI) qHTS assay for identification of artifact compounds
Conditions: MSTI thiol-reactivity probe, 1 h; series mostly up to 39.2 µM
Inconclusive results are not listed. Activity calls are given as the source filed them. The call rests on the fitted dose curve; in most records, active means well fitted inhibition curve with a large enough effect; inconclusive means small, poorly fitted or top-dose-only effect; inactive means no such curve, though single readings can be large or run the other way.
Please reply with one of these outcomes: active, inactive

Reference set (2 entries):
Query: Call for entry `COc1ccc(NC(=O)C(=O)Nc2ccc3nc4n(c(=O)c3c2)CCCCC4)c(OC)c1` :
Result: inactive

Query: Call for entry `O=C1CCCc2[nH]c(=O)c(-c3nc(-c4cccc([N+](=O)[O-])c4)cs3)cc21` :
Result: active

Continuing:
Query: Call for entry `O=C(O)c1c(O)c(O)cc2ccccc12` :
Result: inactive

Query: Call for entry `CC(C)C(=O)SCCCCCCC(=O)Nc1nc(-c2ccccc2)cs1` :
Result: inactive

Query: Call for entry COc1ccc(N2C(=O)CSC23C(=O)N(CC(N)=O)c2ccccc23)cc1 (configuration not stated) :
Result: inactive

Query: Call for entry `CC(C)c1nn2c(=O)cc(COC(=O)c3cccc(NC(=O)COc4ccc(F)cc4)c3)nc2s1` :
Result: inactive

Query: Call for entry `Cc1ccccc1C(=O)N1CCc2cc(-c3nc(NC(=O)Cc4ccccc4)sc3C)ccc21` :
Result: inactive

The measured values listed here are drawn from PubChem BioAssay AID1845226.
